Origin of the recorded values: PubChem BioAssay (NCI)

Reported GI50 is given for each of the following compounds.
system: HCT-15 colon; experiment: NCI tumour cell line growth inhibition, 48 h

> print(dat)
                                inputsmiles  experimentalresult
1  CN(C)CCCn1c2nc(=O)[nH]c(=O)c-2nc2cc(Cl)c(Cl)cc21             4030 nM

Name the recorded GI50 for Cc1ccc(Sc2sc(-c3ccccc3)nc2[P+](c2ccccc2)(c2ccccc2)c2ccccc2)cc1 .
300 nM

What would you report for COc1ccc(N(/C=C/C(=O)C(F)(F)F)CC(=O)c2ccc(Cl)c(Cl)c2)cc1 ?
7660 nM

What about N#Cc1ccc2c(c1)C(=O)c1c-2n(CCCN)c(=O)c2cc([N+](=O)[O-])ccc12 ?
411 nM

Check CCOC(=O)c1cc(C(=O)c2cc(OC)c(OC)c(OC)c2)n2ccccc12 too.
56.5 nM

###

tested on: BT-549 breast; assay: NCI tumour cell line growth inhibition, 48 h
*1 amine or outer side, *2 acyl side, *3 side chain or, on linkers, in order; H or OH if unused. Where a SMILES comes first, the peptide text is derived from it. [ ]: non-standard residue; d: D form. ξ: configuration not given here. X21 = CC[C@@H](C)C(N[*:1])C(=O)[*:2]; ξR = N=C(N)NCCCC(N)C(=O)O; ξI = CCC(C)C(N)C(=O)O; ξL = CC(C)CC(N)C(=O)O; ξK = NCCCCC(N)C(=O)O; ξV = CC(C)C(N)C(=O)O; ξA = CC(N)C(=O)O
readoutLabel: log10(TGI) (log10 of the value in µM)
Scale: log10; quantity: TGI; unit before log: µM

Known log10(TGI) results, listed for orientation:
molecule	experimentalResult
COc1ccccc1/C=C/C(=O)/C=C/c1ccccc1OC	0.50
CC1(C)CC(Nc2ccc(Nc3ccccc3)cc2)CC(C)(C)N1	1.43
CCC(C)C1NC(=O)C(CC(C)C)NC(=O)C(C)NC(=O)C(C(C)C)NC(=O)C(CCCCN)NC(=O)C(CC(C)C)NC(=O)C(C(C)C)NC(=O)[C@H](C)NC(=O)C(C(C)CC)NC(=O)C(CCCN=C(N)N)NC(=O)C(CCCCN)NC(=O)C(CCCN=C(N)N)NC(=O)C(CCCCN)NC(=O)C([C@H](C)CC)NC(=O)C(CCCCN)NC1=O (stereo not given in full) (cyclo(A[ξV][ξL][ξK][ξV][ξA][ξL][ξI][ξK][X21][ξK][ξR][ξK][ξR][ξI]))	0.53
CC(=O)Oc1ccc(/C=C/C(=O)O[C@H]2CCCC[C@@H]2OC(=O)/C=C/c2ccc(OC(C)=O)c(OC(C)=O)c2)cc1OC(C)=O	1.57
CCN1CCC(O)(c2ccc(Oc3ccc(C)cc3)cc2)C(C(=O)c2ccc(Oc3ccc(C)cc3)cc2)C1 (stereo not given)	1.35

Now for another entry.
I'd like to know its log10(TGI). The molecule in question is Cc1cc2nc(N3C(=O)/C(=C/c4ccc(Cl)cc4)N=C3c3ccccc3)sc2cc1C
1.91

###

Each entry below carries its reported TGI.
test system: HL-60(TB) leukemia; test: NCI tumour cell line growth inhibition, 48 h
Numeric answer only, unit µM assumed.

molecule	readoutLabel	experimentalResult
Nc1ccc(Oc2ccc(C34CC5CC6C3CC3CC4C(C5)C6(c4ccc(Oc5ccc(N)c(O)c5)cc4)C3)cc2)cc1O	TGI	3.27

Requested read-out: TGI. Entry: CCN(CC)CCCC(C)NC(=O)c1ccc2c(c1)C(=O)c1ccccc1C2=O (centres undefined)
34.2

Quick one: O=C1C(NCCN2CCOCC2)=C(Cl)C(=O)c2ncccc21
0.168
